B1: ZBED1 (parent)
chain: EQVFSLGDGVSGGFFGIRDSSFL

# Variants of: B1
# measurement protocol: protein stability index of a GFP-peptide fusion (GPS, HEK-293T) (PSI 1-6); higher = more stable;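 note: lentivirally expressed fusions sorted by FACS into six bins by GFP to DsRed ratio, PSI derived from sequencing read proportions per bin multiplied by bin number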
# assay setup: c terminus: native
Consider the following variants; for each one, report its protein stability index.
Returns: the value as a bare number; no unit string appended.

What value of protein stability index has been reported for the following variant? G16D
3.77

What value of protein stability index has been reported for the following variant? G9M
2.9

What value of protein stability index has been reported for the following variant? F4W
3.08

What value of protein stability index has been reported for the following variant? Q2M
1.65

What value of protein stability index has been reported for the following variant? D19V
2.65

What value of protein stability index has been reported for the following variant? G12I
1.42

What value of protein stability index has been reported for the following variant? D19R
2.78

What value of protein stability index has been reported for the following variant? S20V
2.63

What value of protein stability index has been reported for the following variant? L6C
3.76

What value of protein stability index has been reported for the following variant? S20L
2.5

What value of protein stability index has been reported for the following variant? G16C
1.84

Ref: the supplement of paper PMC10567573
